Biological target: tankyrase 1 (Homo sapiens)
Construct: purchased Trevigen 4700-096-K
Sequence (O95271 1-1327): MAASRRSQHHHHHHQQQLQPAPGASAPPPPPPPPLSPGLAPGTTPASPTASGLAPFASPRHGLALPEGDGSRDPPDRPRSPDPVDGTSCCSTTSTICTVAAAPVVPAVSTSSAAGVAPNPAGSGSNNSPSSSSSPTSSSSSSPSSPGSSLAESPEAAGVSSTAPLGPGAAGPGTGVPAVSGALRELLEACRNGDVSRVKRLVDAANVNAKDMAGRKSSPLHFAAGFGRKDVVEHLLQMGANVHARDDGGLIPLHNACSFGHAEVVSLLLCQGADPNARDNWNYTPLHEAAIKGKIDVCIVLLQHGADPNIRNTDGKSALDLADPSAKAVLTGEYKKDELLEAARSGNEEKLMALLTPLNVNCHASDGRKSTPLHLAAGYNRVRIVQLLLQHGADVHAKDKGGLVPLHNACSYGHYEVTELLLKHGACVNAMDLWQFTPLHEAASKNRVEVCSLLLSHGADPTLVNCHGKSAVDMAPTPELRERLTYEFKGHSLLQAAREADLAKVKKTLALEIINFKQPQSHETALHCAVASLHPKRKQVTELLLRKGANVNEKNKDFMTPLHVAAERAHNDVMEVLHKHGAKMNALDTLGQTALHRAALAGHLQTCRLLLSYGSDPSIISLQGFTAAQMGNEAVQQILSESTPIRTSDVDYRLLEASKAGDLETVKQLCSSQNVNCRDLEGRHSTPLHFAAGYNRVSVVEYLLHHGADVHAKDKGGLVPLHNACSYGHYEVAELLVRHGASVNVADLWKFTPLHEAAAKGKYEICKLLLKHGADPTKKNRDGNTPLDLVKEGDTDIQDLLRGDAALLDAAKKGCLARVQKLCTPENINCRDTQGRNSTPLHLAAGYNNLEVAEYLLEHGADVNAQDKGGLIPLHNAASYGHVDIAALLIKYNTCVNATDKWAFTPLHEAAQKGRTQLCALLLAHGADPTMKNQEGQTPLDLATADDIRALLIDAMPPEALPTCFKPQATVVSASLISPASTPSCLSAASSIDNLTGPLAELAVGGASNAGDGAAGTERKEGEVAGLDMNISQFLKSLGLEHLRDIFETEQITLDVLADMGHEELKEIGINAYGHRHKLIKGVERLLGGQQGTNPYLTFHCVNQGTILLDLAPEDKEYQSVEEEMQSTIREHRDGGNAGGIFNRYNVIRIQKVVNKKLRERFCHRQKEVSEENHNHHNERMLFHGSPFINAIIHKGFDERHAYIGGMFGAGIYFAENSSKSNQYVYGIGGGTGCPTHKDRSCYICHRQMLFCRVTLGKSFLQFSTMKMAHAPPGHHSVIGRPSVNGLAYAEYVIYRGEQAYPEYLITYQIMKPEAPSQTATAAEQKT
Test: Analysis of activity of tankyrase 1 (Trevigen kit, ELISA absorbance at 450 nm)
Format: biochemical
Conditions: Trevigen kit Cat. No. 4700-096-K; reaction at rt for 30 min; read-out: TNKS1 (IC50)
REPORTED_PROPERTY: IC50 (nM)
Only the number, expressed in nM, is required.

Measured IC50 (tankyrase 1 (Homo sapiens)), entry Cc1ncc2c(=O)[nH]c(N3CCN(c4c(F)cc(C(C)O)cc4F)CC3)nn12 (centres unmarked) : 45.7

Measured IC50 (tankyrase 1 (Homo sapiens)), entry `Cc1ncc2c(=O)[nH]c(N3CCN(c4c(F)cc(CN5CCN(C)CC5)cc4F)CC3)nn12` : 44.1

Measured IC50 (tankyrase 1 (Homo sapiens)), entry `Cc1ncc2c(=O)[nH]c(N3CCN(c4c(F)cc(OCC(=O)N5CCCC5)cc4F)CC3)nn12` : 84.8

Measured IC50 (tankyrase 1 (Homo sapiens)), entry `Cc1ncc2c(=O)[nH]c(N3CCN(c4c(F)cc(OCCN5CCC(O)CC5)cc4F)CC3)nn12` : 65.2

Measured IC50 (tankyrase 1 (Homo sapiens)), entry COC(C)c1cc(F)c(N2CCN(c3nn4c(C)ncc4c(=O)[nH]3)CC2)c(F)c1 (centres unmarked) : 69.2

Measured IC50 (tankyrase 1 (Homo sapiens)), entry `COCCOc1cc(F)c(C2(O)CCN(c3nn4c(C)ncc4c(=O)[nH]3)CC2)c(F)c1` : 67.2

Measured IC50 (tankyrase 1 (Homo sapiens)), entry `Cc1ncc2c(=O)[nH]c(N3CCN(c4c(F)cc(OCc5ccccc5)cc4F)CC3)nn12` : 494

Measured IC50 (tankyrase 1 (Homo sapiens)), entry Cc1ncc2c(=O)[nH]c(N3CCN(c4c(F)cc(OCC(O)CO)cc4F)CC3)nn12 (centres unmarked) : 79.5

Measured IC50 (tankyrase 1 (Homo sapiens)), entry `Cc1ncc2c(=O)[nH]c(N3CCN(c4c(F)cc(OCCN5CCCCC5)cc4F)CC3)nn12` : 25.2

Measured IC50 (tankyrase 1 (Homo sapiens)), entry `Cc1ncc2c(=O)[nH]c(N3CCN(c4c(F)cc(CN5CCOCC5)cc4F)CC3)nn12` : 48.8

Measured IC50 (tankyrase 1 (Homo sapiens)), entry `Cc1ncc2c(=O)[nH]c(N3CCN(c4c(F)cc(OCCN5CCN(C)CC5)cc4F)CC3)nn12` : 69.9
